- test-system: T1, VLP-hCLDN6 (human) (UniProt P56747)
- T1 sequence: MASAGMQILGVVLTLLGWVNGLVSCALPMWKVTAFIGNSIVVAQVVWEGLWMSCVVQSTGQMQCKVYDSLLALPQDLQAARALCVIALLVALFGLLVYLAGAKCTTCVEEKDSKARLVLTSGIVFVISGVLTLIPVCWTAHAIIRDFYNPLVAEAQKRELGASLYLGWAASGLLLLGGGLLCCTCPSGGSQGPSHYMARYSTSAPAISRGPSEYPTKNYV
- assay-notes: ELISA, coated VLP-hCLDN6, 10 ul antibody sample (second well), HRP-Protein A
value-kind: OD450
# answer = number (no unit)

humanized antibody hAb-15 (antibody, V domains shown) VH: EVKLVESGGGLVQPGGSLRLSCAASGFTFNSYTMSWVRQAPGKRLEWVVTISSGGGRTYYPDSVKGRFTISRDNAKNTLYLQMSSLRAEDTAVYYCIRGDYRYDGFAYWGQGTLVTVSS VL: DIQMTQSPSSLSASVGDRVTITCRASENIDSYLAWYQQKPGKSPQLLVYASTLLQDGVPSRFSGSRSGTQFTLTISSLQPEDVARYYCQHYYSIPYTFGSGTKLEIK: 1.47
humanized antibody hAb-6 (antibody, V domains shown) VH: EVKLVESGGGLVKPGGSLRLSCAASGFTFNSYTMSWVRQAPGKRLEWVVTISSGGGRTYYPDSVKGRFTISRDNAKNTLYLQMSSLRAEDTAVYYCIRGDYRYDGFAYWGQGTLVTVSS VL: DIQMTQSPSSLSASVGDRVTITCRASENIDSYLAWYQQKPGKSPQLLVYASTLLQDGVPSRFSGSRSGTDFTLTISSLQPEDVATYYCQHYYSIPYTFGSGTKLEIK: 1.04
humanized antibody hAb-16 (antibody, V domains shown) VH: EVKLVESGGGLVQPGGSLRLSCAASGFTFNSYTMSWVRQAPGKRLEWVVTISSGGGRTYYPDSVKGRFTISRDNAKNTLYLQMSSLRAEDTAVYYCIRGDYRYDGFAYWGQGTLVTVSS VL: DIQMTQSPSSLSASVGDRVTITCRASENIDSYLAWYQQKPGKSPQLLVYASTLLQDGVPSRFSGSRSGTQFTLTISSLQPEDFATYYCQHYYSIPYTFGSGTKLEIK: 1.24
humanized antibody hAb-13 (antibody, V domains shown) VH: EVKLVESGGGLVKPGGSLRLSCAASGFTFNSYTMSWVRQTPAKRLEWVVTISSGGGRTYYPDSVKGRFTISRDNAKNTLYLQMSSLRAEDTAVYYCIRGDYRYDGFAYWGQGTLVTVSS VL: DIQMTQSPSSLSASVGDRVTITCRASENIDSYLAWYQQKPGKSPQLLVYASTLLVDGVPSRFSGSRSGTQFSLTISSLQPEDVARYYCQHYYSIPYTFGSGTKLEIK: 1.7
humanized antibody hAb-10 (antibody, V domains shown) VH: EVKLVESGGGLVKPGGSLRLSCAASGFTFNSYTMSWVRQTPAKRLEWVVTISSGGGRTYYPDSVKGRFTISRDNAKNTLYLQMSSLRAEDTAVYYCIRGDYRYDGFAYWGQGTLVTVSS VL: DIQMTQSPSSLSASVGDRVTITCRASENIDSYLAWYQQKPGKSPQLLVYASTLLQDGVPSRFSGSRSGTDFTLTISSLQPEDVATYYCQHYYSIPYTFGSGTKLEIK: 1.13

Complete the entry with OD450 for humanized antibody hAb-7 (antibody, V domains shown) VH: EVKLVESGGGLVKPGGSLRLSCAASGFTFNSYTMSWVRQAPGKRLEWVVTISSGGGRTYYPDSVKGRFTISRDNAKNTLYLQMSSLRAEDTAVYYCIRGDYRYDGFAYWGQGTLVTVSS VL: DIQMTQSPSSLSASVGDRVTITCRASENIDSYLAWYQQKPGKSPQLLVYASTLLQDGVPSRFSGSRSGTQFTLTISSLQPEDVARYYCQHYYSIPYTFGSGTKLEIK 1.46

Give the measured OD450 for humanized antibody hAb-11 (antibody, V domains shown) VH: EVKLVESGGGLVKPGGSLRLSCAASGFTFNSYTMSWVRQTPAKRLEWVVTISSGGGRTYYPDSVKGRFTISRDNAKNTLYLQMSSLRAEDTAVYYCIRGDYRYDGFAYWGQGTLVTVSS VL: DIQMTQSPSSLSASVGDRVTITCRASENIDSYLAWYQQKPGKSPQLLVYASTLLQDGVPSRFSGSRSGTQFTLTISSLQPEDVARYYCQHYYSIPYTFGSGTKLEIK 1.54

Report OD450 for humanized antibody hAb-18 (antibody, V domains shown) VH: EVKLVESGGGLVQPGGSLRLSCAASGFTFNSYTMSWVRQTPAKRLEWVVTISSGGGRTYYPDSVKGRFTISRDNAKNTLYLQMSSLRAEDTAVYYCIRGDYRYDGFAYWGQGTLVTVSS VL: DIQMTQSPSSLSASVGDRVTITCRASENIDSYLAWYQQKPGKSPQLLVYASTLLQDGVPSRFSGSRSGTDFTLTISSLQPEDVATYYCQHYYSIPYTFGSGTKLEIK 1.13

Name the recorded OD450 of the item humanized antibody hAb-19 (antibody, V domains shown) VH: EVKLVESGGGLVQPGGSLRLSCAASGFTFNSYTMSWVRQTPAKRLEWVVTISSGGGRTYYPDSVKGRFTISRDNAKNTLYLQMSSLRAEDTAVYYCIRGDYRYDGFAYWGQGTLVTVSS VL: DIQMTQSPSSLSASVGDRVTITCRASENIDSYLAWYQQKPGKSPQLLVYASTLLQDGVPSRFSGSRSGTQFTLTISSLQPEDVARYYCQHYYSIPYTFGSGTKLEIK in your answer. 1.57

In one line, give reported OD450 of the entry humanized antibody hAb-23 (antibody, V domains shown) VH: EVKLVESGGGLVKPGGSLRLSCAASGFTFNSYTMSWVRQTPAKRLEWVVTISSGGGRTYYPDSVKGRFTISRDNARNTLYLQMSSLRAEDTAVYYCIRGDYRYDGFAYWGQGTLVTVSS VL: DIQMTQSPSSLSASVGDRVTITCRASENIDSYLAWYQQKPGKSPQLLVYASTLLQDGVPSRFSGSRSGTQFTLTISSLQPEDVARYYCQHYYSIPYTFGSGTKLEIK . 1.46
